These entries and their values trace back to PubChem BioAssay (NCI).

# System: MDA-MB-435 melanoma
# ASSAY_REMARKS: NCI-60 one-dose screen, 48 h (100 = growth as untreated, 0 = no growth, -100 = all killed)
# CONDITION: 10 µM unless noted
About 83,000 compounds went through this panel and 20% of them were active in at least one assay; those are over-represented in the sample as a whole.
Assign growth to each entry below.
One number for each entry, in %.

Take a look at these entries with their results.
COc1ccc2nc3ccccc3c(NCc3ccccc3)c2c1; 33.8
O=C1CCCc2nc3sc4c(=O)n(-c5ccccc5Cl)nnc4c3cc21; 102
COc1ccc(C(c2cc(OC)c(OC)c(OC)c2)N2CCCC2)cc1 (stereo not given); -21.8

Please supply growth for each of the following items, keeping them in order.
1. CCN=C1C=CC(=C(c2ccc(N(C)C)cc2)c2ccc(N(C)C)cc2)c2ccccc21
2. CC(C)(C)C(=O)/C=C/c1ccc([N+](=O)[O-])cc1

[-35.2, 47.1]

Please supply growth for each of the following items, keeping them in order.
1. O=C1CCC(C(=O)NN(c2ccccc2)c2ccccc2)N1 (stereo not given)
2. CC(C)[C@@]12C[C@@H](OC(=O)COC(=O)c3ccccc3)[C@@](C)(O1)[C@@H]1CC[C@@H](C)[C@H]1[C@@H]2OC(=O)/C=C/c1ccccc1

93.8
99.8

Please supply growth for each of the following items, keeping them in order.
1. Cc1c(Cl)cccc1C(=O)Nc1nc2c(s1)CN(C(=O)Nc1cccc(C(F)(F)F)c1)CC2
2. CCOC(=O)c1c(C)nc2c(c1N)CC(=O)N2Cc1cc(OC)c(OC)c(OC)c1
3. CCOC(=O)C1=C(c2ccccc2)N=c2s/c(=C/c3ccc(Br)cc3)c(=O)n2C1c1ccc(O)cc1 (stereo not given)
4. NC(=S)N/N=C/c1cn(-c2ccccc2)nc1-c1cc2ccccc2oc1=O

1. -22
2. 4.24
3. 96
4. -47.5

Please supply growth for each of the following items, keeping them in order.
1. CCCCc1oc2ccccc2c1C(=O)c1ccc(O)cc1
2. C/C(=N\O)C(=O)NCCCCCC(=O)Nc1ccccc1
3. COc1ccc(Cc2cnc(NC(=O)c3sc4ccccc4c3Cl)s2)cc1
4. N=C(N)c1ccc(-c2ccc(-c3ccc(Cl)cc3)o2)o1

52.2
101
-39.1
-89.1
